- Assay Details: Plasma pharmacokinetics after single oral doses in the PET studies
- Type: in vivo, human
- Setup Conditions: human, plasma, po, 30 mg, AZD6280 single oral dose 30 mg; individual subjects; read-out: C max
Reported Endpoint: Cmax (nM)
Answers are plain numbers, in nM.

Supply recorded Cmax for CCCNC(=O)c1nnc2c(-c3cc(OC)ccc3OC)cccc2c1N here.
729

* * *

- Assay Details: Plasma pharmacokinetics after single oral doses in the PET studies
- Type: in vivo, human
- Setup Conditions: human, plasma, po, 5 mg, AZD7325 single oral dose 5 mg; individual subjects; read-out: C max
Reported Endpoint: Cmax (nM)
Answers are plain numbers, in nM.

Supply recorded Cmax for CCCNC(=O)c1nnc2c(-c3c(F)cccc3OC)cccc2c1N here.
50.2

The reported numbers originate from paper PMC5263201.
